Test system: Staphylococcus aureus
testDetails: Antibacterial activity against Staphylococcus aureus expressing aminoglycoside-6'-N-acetyltransferase/2''-O-phosphoryltransferase after 24 hrs by geometric microdilution method
Type: functional
reportedMetric: MIC

Consider the reported MIC for these compounds:
> print(dat)
                                smilesinput  reportedmetric        value
1  CCCCCCCCCCCCCCCCCCO[C@@H]1[C@@H](N)[C@@H](O[C@H]2[C@H](O)[C@@H](O)[C@H](N)C[C@@H]2N)O[C@H](CN)[C@H]1O             MIC  > 128 µg/mL
2  NC[C@H]1O[C@H](O[C@H]2[C@H](O)[C@@H](OCc3ccccc3)[C@H](N)C[C@@H]2N)[C@H](N)[C@@H](OCc2ccccc2)[C@@H]1O             MIC  > 128 µg/mL

# evaluate next
Which MIC is listed for `CCCCCCO[C@@H]1[C@@H](N)[C@@H](O[C@H]2[C@H](O)[C@@H](OCCCCCC)[C@H](N)C[C@@H]2N)O[C@H](CN)[C@H]1O` ?
> 128 µg/mL
